Test: Fluorimetry: absorption and emission spectra, Stokes shift, molar absorption coefficient, quantum efficiency
Type: physicochemical
Set-up: unit not given here
Details: pH 7 (phosphate buffer pH 7.2, 0.2 M)
Procedure: The physicochemical properties of each ligand were determined thanks to fluorimetry. For each compound, a dilution range was performed and measurements were taken at 1 mM, 316 μM, 100 μM, 31.6 μM, 10 μM, 3.16 μM and 1μ. In 96-well fluorescence microplates, the absorbance and emission spectra of the ligands could be determined at each concentration thanks to a plate spectrophotometer (Tecan). […] [formula] • of the fluorescence spectrum, n: refractive index of the medium). […]
valueKind: λmax em
Form: value (number only, do not type unit).

Solved entries (count: 4):
In [3]: df
Out[3]:
                            substancesmiles  measuredvalue
0  CCOC(=O)c1cc2cc(-n3cc(-c4ccc(-c5ccc(N)cc5)cc4)nn3)c(OC)cc2oc1=O            400
1  CCOC(=O)c1cc2cc(C#Cc3ccc(-c4ccc(N)cc4)cc3)c(O)cc2oc1=O            425
2  COc1cc2oc(=O)c(C(=O)O)cc2cc1-n1cc(-c2ccc(-c3ccc(N)cc3)cc2)nn1            416
3  CCOC(=O)c1cc2cc(-n3cc(-c4ccc(-c5ccc(N)cc5)cc4)nn3)ccc2oc1=O            412

State, in one line, measured λmax em of Nc1ccc(-c2ccc(-c3cn(-c4ccc5oc(=O)c(C(=O)O)cc5c4)nn3)cc2)cc1
415

State, in one line, measured λmax em of CCOC(=O)c1cc(C(=O)OCC)c2cc(-c3ccc(-c4ccccc4)cc3)ccc2n1
440

* * *

test: Fluorimetry: absorption and emission spectra, Stokes shift, molar absorption coefficient, quantum efficiency; assay type: physicochemical; design: key: λmaxem − λmaxabs (emission peak minus absorption peak); settings: pH 5.5; λmaxem-λmaxabs
valueKind: Stokes shift
Form: value (number only, do not type unit).

In [3]: df
Out[3]:
                            substancesmiles  measuredvalue
0  CCOC(=O)c1cc2cc(-n3cc(-c4ccc(-c5ccc(N)cc5)cc4)nn3)c(OC)cc2oc1=O             50
1  Nc1ccc(-c2ccc(C#Cc3cc4cc(C(=O)O)c(=O)oc4cc3O)cc2)cc1             47

State, in one line, measured Stokes shift of CCOC(=O)c1cc2cc(C#Cc3ccc(-c4ccc(N)cc4)cc3)c(O)cc2oc1=O
45

State, in one line, measured Stokes shift of COc1cc2oc(=O)c(C(=O)O)cc2cc1-n1cc(-c2ccc(-c3ccc(N)cc3)cc2)nn1
45

State, in one line, measured Stokes shift of CCOC(=O)c1cc2cc(-n3cc(-c4ccc(-c5ccc(N)cc5)cc4)nn3)ccc2oc1=O
47

State, in one line, measured Stokes shift of O=C(O)c1cc(C(=O)O)c2cc(-c3ccc(-c4ccccc4)cc3)ccc2n1
80

State, in one line, measured Stokes shift of Nc1ccc(-c2ccc(-c3cn(-c4ccc5oc(=O)c(C(=O)O)cc5c4)nn3)cc2)cc1
43

State, in one line, measured Stokes shift of CCOC(=O)c1cc(C(=O)OCC)c2cc(-c3ccc(-c4ccccc4)cc3)ccc2n1
85

* * *

System: VGLUTs (GLU vesicular transport)
Experiment: Vesicular glutamate reuptake test ([3H]-glutamate, synaptic vesicles)
Format: biochemical, rat
Settings: 20 μM; coumarin-derived compounds
Description: The EC50 was also determined for several of the compounds of the invention. The vesicular glutamate reuptake was tested as previously described (Kish and Ueda, 1989; Naito and Ueda, 1985; Pietrancosta et al., 2010) with minor modifications. […] The radioactivity related to the filters was measured in a Beckman LS 6500 scintillation spectrophotometer. […]
Some molecules, each annotated with its measured % inhibition of GLU vesicular transport at 20 μM.
Just the number in %, nothing appended.

>>> df
                                   molecule  measurementunits  measuredvalue
0  COc1cc2oc(=O)c(C(=O)O)cc2cc1C#Cc1ccccc1 [LSP17-1046]                 %             48

# return % inhibition of GLU vesicular transport at 20 μM for CCN(CC)c1cc2oc(=O)c(C(=O)O)cc2cc1-n1cc(-c2ccc(-c3ccc(N)cc3)cc2)nn1 [LSP17-1154] , test system: VGLUTs (GLU vesicular transport)
50

# return % inhibition of GLU vesicular transport at 20 μM for COc1cc(Br)ccc1/N=N/c1cc2cc(C(=O)O)c(=O)oc2cc1OC [LSP9-4150] , test system: VGLUTs (GLU vesicular transport)
15

# return % inhibition of GLU vesicular transport at 20 μM for O=C(O)c1cc2cc(/N=N/c3ccccc3)ccc2oc1=O [LSP9-4126] , test system: VGLUTs (GLU vesicular transport)
5

# return % inhibition of GLU vesicular transport at 20 μM for CCN(CC)c1cc2oc(=O)c(C(=O)O)cc2cc1C#Cc1ccccc1 [LSP17-1042] , test system: VGLUTs (GLU vesicular transport)
12

# return % inhibition of GLU vesicular transport at 20 μM for COc1cc2oc(=O)c(C(=O)O)cc2cc1/N=N/c1ccccc1 [LSP9-4108] , test system: VGLUTs (GLU vesicular transport)
30

# return % inhibition of GLU vesicular transport at 20 μM for COc1cc2oc(=O)c(C(=O)O)cc2cc1/N=N/c1ccc(Br)cc1 [LSP9-3164] , test system: VGLUTs (GLU vesicular transport)
40

# return % inhibition of GLU vesicular transport at 20 μM for COc1cc2oc(=O)c(C(=O)O)cc2cc1/N=N/c1ccc(-c2ccc(N)cc2)cc1 [LSP9-4089] , test system: VGLUTs (GLU vesicular transport)
35

# return % inhibition of GLU vesicular transport at 20 μM for Nc1ccc(-c2ccc(C#Cc3cc4cc(C(=O)O)c(=O)oc4cc3O)cc2)cc1 [LSP17-1173] , test system: VGLUTs (GLU vesicular transport)
100

* * *

assay: Fluorimetry: absorption and emission spectra, Stokes shift, molar absorption coefficient, quantum efficiency; assay type: physicochemical; design: key: λmaxem − λmaxabs (emission peak minus absorption peak); conditions: DMSO; λmaxem-λmaxabs
Returns one of yes or no; yes when Stokes shift is >= 80.

Please review the entries below; each comes with its answer.
In [3]: df
Out[3]:
                            substancesmiles  classification
0  CCOC(=O)c1cc2cc(-n3cc(-c4ccc(-c5ccc(N)cc5)cc4)nn3)ccc2oc1=O             yes
1  CCOC(=O)c1cc2cc(-n3cc(-c4ccc(-c5ccc(N)cc5)cc4)nn3)c(OC)cc2oc1=O              no
2  COc1cc2oc(=O)c(C(=O)O)cc2cc1-n1cc(-c2ccc(-c3ccc(N)cc3)cc2)nn1              no
3  Nc1ccc(-c2ccc(C#Cc3cc4cc(C(=O)O)c(=O)oc4cc3O)cc2)cc1             yes
4  Nc1ccc(-c2ccc(-c3cn(-c4ccc5oc(=O)c(C(=O)O)cc5c4)nn3)cc2)cc1             yes

Textbook exercise: given the entry CCOC(=O)c1cc(C(=O)OCC)c2cc(-c3ccc(-c4ccccc4)cc3)ccc2n1 , state whether its Stokes shift is greater than or equal to 80.
no

Textbook exercise: given the entry CCOC(=O)c1cc2cc(C#Cc3ccc(-c4ccc(N)cc4)cc3)c(O)cc2oc1=O , state whether its Stokes shift is greater than or equal to 80.
yes

Textbook exercise: given the entry O=C(O)c1cc(C(=O)O)c2cc(-c3ccc(-c4ccccc4)cc3)ccc2n1 , state whether its Stokes shift is greater than or equal to 80.
no

* * *

assay: Fluorimetry: absorption and emission spectra, Stokes shift, molar absorption coefficient, quantum efficiency; format: physicochemical; design: unit not given here; conditions: DMSO
Some molecules, each annotated with its measured λmax em.
Form: value (number only, do not type unit).

State, in one line, measured λmax em of Nc1ccc(-c2ccc(-c3cn(-c4ccc5oc(=O)c(C(=O)O)cc5c4)nn3)cc2)cc1 [LSP17-1115]
410

* * *

Some compounds, each annotated with its measured φ (quantum efficiency).
assay: Fluorimetry: absorption and emission spectra, Stokes shift, molar absorption coefficient, quantum efficiency; type: physicochemical; settings: coumarin-343 as reference, DMSO
Form: value (number only, do not type unit).

>>> df
                            substancesmiles               valuekind  measuredvalue
0  O=C(O)c1cc(C(=O)O)c2cc(-c3ccc(-c4ccccc4)cc3)ccc2n1  φ (quantum efficiency)           0.32

State, in one line, measured φ (quantum efficiency) of COc1cc2oc(=O)c(C(=O)O)cc2cc1-n1cc(-c2ccc(-c3ccc(N)cc3)cc2)nn1
0.14

State, in one line, measured φ (quantum efficiency) of CCOC(=O)c1cc2cc(-n3cc(-c4ccc(-c5ccc(N)cc5)cc4)nn3)ccc2oc1=O
0.1

State, in one line, measured φ (quantum efficiency) of Nc1ccc(-c2ccc(C#Cc3cc4cc(C(=O)O)c(=O)oc4cc3O)cc2)cc1
0.06
